Tested on: Saccharomyces cerevisiae
Test name: protein stability index of tFT-peptide fusion (C-terminal peptide) (PSI (0-1 scale)); higher = more stable (slower turnover)
Experimental parameters: genetic background: wild type; temperature: 30 C
Measured endpoint: protein stability index

Sequence content	Reading
LQSDKDLQSLLT [CUE1 C-terminal 12 aa]	0.683
SLEAVSKMDKLA [AAT1 C-terminal 12 aa]	0.679
SVLYAIDFSAAF [EMA35 C-terminal 12 aa]	0.703
SRSSIKNIVKPK [MRX15 C-terminal 12 aa]	0.75
VTAGKAKFVLYN [SUN4 C-terminal 12 aa]	0.445
CKQNSNCEYLYM [YOR365C C-terminal 12 aa]	0.699
STFTLNLEDVSK [ECM12 C-terminal 12 aa]	0.634
NNRYKNFSPKRL [YHR071C-A C-terminal 12 aa]	0.683
CIEIARHFVLKE [YEL009C-A C-terminal 12 aa]	0.708
TTTGDKKSEEKQ [TCB2 C-terminal 12 aa]	0.69
IFKKIRLLLHVN [MCP1 C-terminal 12 aa]	0.2
FIEMSLASSFAG [MBR1 C-terminal 12 aa]	0.704

Cited source: the supplement of paper PMC10724198
